IC50 listing for selected compounds.
# Study System: recombinant human NAE enzyme (Homo sapiens)
# Construct: His (N); made in house; host or cells: Sf9 insect cells (baculovirus, Bac-to-Bac)
# Measurement Protocol: Nedd8-Activating Enzyme (NAE) HTRF Assay
# Type: biochemical
# Recorded Conditions: 20 μM ATP, bound given in nM

NS(=O)(=O)OC[C@@H]1C[C@@H](Nc2c(Cl)cnc3[nH]c(-c4cccc5ccccc45)nc23)C[C@@H]1O; ≤ 500 nM
CC(C)(C)c1nc2c(N[C@@H]3C[C@@H](COS(N)(=O)=O)[C@@H](O)C3)ncnc2[nH]1; ≤ 500 nM
CO[C@H]1Cc2ccccc2[C@H]1Nc1ncnc(N[C@@H]2C[C@@H](COS(N)(=O)=O)[C@@H](O)C2)n1; ≤ 500 nM
NS(=O)(=O)OC[C@@H]1C[C@@H](Oc2cc(OCc3ccc4ccccc4c3)ncn2)C[C@@H]1O; > 500 nM
NS(=O)(=O)OC[C@@H]1C[C@@H](Nc2ncnc3[nH]c(-c4cccc5ccccc45)cc23)C[C@@H]1O; ≤ 500 nM
NS(=O)(=O)OC[C@H]1C[C@@H](Nc2ccnc(NCC3CCCCC3)n2)[C@H](O)[C@@H]1O; > 500 nM

Attention now turns to another entry.
Task item: Which IC50 is listed for `NS(=O)(=O)OC[C@@H]1C[C@@H](Nc2ncnc3[nH]c(Cc4ccccc4)nc23)C[C@@H]1O` ?
Reply: ≤ 500 nM

----------
# Study System: recombinant human NAE enzyme (Homo sapiens, UniProt Q8TBC4)
# Construct: His (N); made in house; host or cells: Sf9 insect cells (baculovirus, Bac-to-Bac)
# Measurement Protocol: Nedd8-Activating Enzyme (NAE) HTRF Assay
# Type: biochemical
# Recorded Conditions: 20 μM ATP, bound given in nM
Value Kind: IC50

Record excerpt, results attached:
NS(=O)(=O)OC[C@H]1C[C@@H](Nc2nc(N[C@H]3CCc4ccccc43)ncc2F)[C@H](O)[C@@H]1O; > 500 nM
Cn1c(-c2ccccc2)nc2ncnc(N[C@@H]3C[C@@H](COS(N)(=O)=O)[C@@H](O)C3)c21; > 500 nM

Task item: Which IC50 is reported for this molecule? `CN(c1ncnc2[nH]c(-c3cccc4ccccc34)nc12)[C@@H]1C[C@@H](COS(N)(=O)=O)[C@@H](O)C1`
Reply: ≤ 500 nM

Task item: Same again, this time with `NS(=O)(=O)OC[C@@H]1C[C@@H](Nc2ncnc3[nH]c(-c4cccc5ccccc45)nc23)C[C@@H]1O`
Reply: ≤ 500 nM

Task item: And the next one, CC1CC(Nc2nccc(N[C@@H]3C[C@H](COS(N)(=O)=O)[C@@H](O)[C@H]3O)n2)c2ccccc21 (stereo partly shown) ?
Reply: ≤ 500 nM

Task item: Also `NS(=O)(=O)OC[C@@H]1C[C@@H](Nc2ncnc3[nH]c(-c4ccccc4)cc23)C[C@@H]1O` ?
Reply: ≤ 500 nM

Task item: Ok, now `NS(=O)(=O)OC[C@@H]1C[C@@H](Oc2cc(-c3ccccc3)ncn2)C[C@@H]1O`
Reply: > 500 nM

----------
The following molecules are listed with their measured IC50 values.
# Study System: recombinant human NAE enzyme (Homo sapiens, UniProt Q8TBC4)
# Construct: His (N); made in house; host or cells: Sf9 insect cells (baculovirus, Bac-to-Bac)
# Measurement Protocol: Nedd8-Activating Enzyme (NAE) HTRF Assay
# Assay type: biochemical
# Recorded Conditions: 20 μM ATP, bound given in μM

NS(=O)(=O)OC[C@H]1C[C@@H](O)[C@H](Nc2cc(N[C@H]3CCc4ccccc43)ncn2)C1; > 10 µM

Task item: Which IC50 value is on record for `NS(=O)(=O)OC[C@@H]1C[C@@H](Oc2cc(-c3ccccc3)ncn2)C[C@@H]1O` ?
Reply: < 10 µM

Task item: Thanks! And `NS(=O)(=O)OC[C@@H]1C[C@@H](Cc2cc(N[C@H]3CCc4ccccc43)ncn2)C[C@@H]1O` ?
Reply: < 10 µM

Task item: Try this molecule next: `CC1(C)C[C@H](Nc2cc(O[C@@H]3C[C@@H](COS(N)(=O)=O)[C@@H](O)C3)ccn2)c2ccc(Cl)cc21`
Reply: < 10 µM

----------
Examples of compounds with documented IC50 follow.
# Study System: recombinant human NAE enzyme (Homo sapiens, UniProt Q8TBC4)
# Construct: His (N); made in house; host or cells: Sf9 insect cells (baculovirus, Bac-to-Bac)
# Measurement Protocol: Nedd8-Activating Enzyme (NAE) HTRF Assay
# Format: biochemical
# Recorded Conditions: 20 μM ATP, bound given in μM
# Method: Following manufacturer instructions, baculoviruses were generated with the Bac-to-Bac Expression System (Invitrogen) for the following proteins: untagged NAEα (APPBP1; NP_003896.1), N-terminally His-tagged NAEJ (UBE1C; NP_003959.3), untagged SAEα (SAE1; NP_005491.1), N-terminally His-tagged SAE3 (UBA2; NP_005490.1), N-terminally His-tagged murine UAE (UBE1X; NP_033483). […] After incubation for 1 hour at 24° C., quantification of the FRET was performed on the Analyst™ HT 96.384 (Molecular Devices).

NS(=O)(=O)OC[C@H]1C[C@@H](Nc2cc(CCc3ccccc3)ncn2)[C@H](O)[C@@H]1O; < 10 µM
NS(=O)(=O)OC[C@@H]1C[C@@H](Nc2cc(CCc3ccccc3)ncn2)C[C@@H]1O; < 10 µM
NS(=O)(=O)OC[C@@H]1C[C@@H](O)[C@H](Nc2cc(N[C@H]3CCc4ccccc43)ncn2)C1; > 10 µM
OC[C@@H]1C[C@@H](Nc2ncnc3[nH]c(-c4cccc5c4OCCO5)nc23)C[C@@H]1O; < 10 µM
NS(=O)(=O)OC[C@@H]1C[C@@H](Nc2cc(N[C@H]3CCc4ccccc43)nc(=O)[nH]2)C[C@@H]1O; < 10 µM
NS(=O)(=O)OC[C@@H]1C[C@@H](Oc2cc(OCc3ccc(Cl)cc3)ncn2)C[C@@H]1O; > 10 µM
CN(C)C(=O)[C@H]1Cc2ccccc2[C@H]1Nc1cc(O[C@@H]2C[C@@H](COS(N)(=O)=O)[C@@H](O)C2)ncn1; < 10 µM
CN(Cc1ccccc1)c1cc(N[C@@H]2C[C@H](COS(N)(=O)=O)[C@@H](O)[C@H]2O)ncn1; > 10 µM

Task item: Which IC50 value is on record for `NS(=O)(=O)OC[C@H]1C[C@@H](Nc2ccnc(C(=O)N3CCc4ccccc43)c2)[C@H](O)[C@@H]1O` ?
Reply: > 10 µM

Task item: Repeat with `OC[C@@H]1C[C@@H](Nc2ncnc3[nH]c(-c4cccc5c4CCCC5)nc23)C[C@@H]1O`
Reply: < 10 µM

----------
# Study System: recombinant human NAE enzyme (Homo sapiens, UniProt Q8TBC4)
# Construct: His (N); made in house; host or cells: Sf9 insect cells (baculovirus, Bac-to-Bac)
# Measurement Protocol: Nedd8-Activating Enzyme (NAE) HTRF Assay
# Format: biochemical
# Recorded Conditions: 20 μM ATP, bound given in nM
Value Kind: IC50

NS(=O)(=O)OC[C@H]1C[C@@H](NC(=O)c2cccnc2)[C@H](O)[C@@H]1O [Compound I-16]; > 500 nM
CC1(C)Cc2cccc(-c3nc4c(N[C@@H]5C[C@@H](COS(N)(=O)=O)[C@@H](O)C5)ncnc4[nH]3)c2O1 [Compound I-100]; ≤ 500 nM
NS(=O)(=O)OC[C@H]1C[C@@H](Nc2cc(N[C@H]3CCC[C@@H]3OCc3ccccc3)ncn2)[C@H](O)[C@@H]1O [Compound I-92]; > 500 nM
NS(=O)(=O)OC[C@@H]1C[C@@H](Nc2ncnc3[nH]c(-c4ccccc4OCc4ccccc4)nc23)C[C@@H]1O [Compound I-68]; ≤ 500 nM
COc1ccc2c(c1)[C@@H](Nc1cc(O[C@@H]3C[C@@H](COS(N)(=O)=O)[C@@H](O)C3)ncn1)[C@@H](OC)CC2 [Compound I-149]; > 500 nM

Task item: Which IC50 is reported for this compound? NS(=O)(=O)OC[C@H]1C[C@@H](Nc2cc(CCc3ccccc3)ncn2)[C@H](O)[C@@H]1O [Compound I-86]
Reply: > 500 nM

Task item: Queued: NS(=O)(=O)OC[C@H]1C[C@@H](Nc2cc(N[C@H]3CCCc4ccccc43)ncn2)[C@H](O)[C@@H]1O [Compound I-12]
Reply: ≤ 500 nM

----------
IC50 overview
# Study System: recombinant human NAE enzyme (Homo sapiens, UniProt Q8TBC4)
# Construct: His (N); made in house; host or cells: Sf9 insect cells (baculovirus, Bac-to-Bac)
# Sequence (Q8TBC4 1-463): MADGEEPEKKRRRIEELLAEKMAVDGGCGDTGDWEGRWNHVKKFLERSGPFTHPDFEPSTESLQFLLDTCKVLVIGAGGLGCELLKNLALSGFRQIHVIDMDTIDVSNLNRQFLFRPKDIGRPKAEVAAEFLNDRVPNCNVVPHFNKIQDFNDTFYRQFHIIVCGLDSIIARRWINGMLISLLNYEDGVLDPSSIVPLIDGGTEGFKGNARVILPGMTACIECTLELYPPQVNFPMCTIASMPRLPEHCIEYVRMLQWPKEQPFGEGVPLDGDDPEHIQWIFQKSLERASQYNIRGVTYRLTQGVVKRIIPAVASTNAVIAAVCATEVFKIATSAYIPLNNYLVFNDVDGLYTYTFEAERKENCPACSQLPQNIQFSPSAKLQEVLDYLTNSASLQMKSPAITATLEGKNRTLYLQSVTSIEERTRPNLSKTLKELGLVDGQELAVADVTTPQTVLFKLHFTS
# Sequence (Q13564 1-534 partner): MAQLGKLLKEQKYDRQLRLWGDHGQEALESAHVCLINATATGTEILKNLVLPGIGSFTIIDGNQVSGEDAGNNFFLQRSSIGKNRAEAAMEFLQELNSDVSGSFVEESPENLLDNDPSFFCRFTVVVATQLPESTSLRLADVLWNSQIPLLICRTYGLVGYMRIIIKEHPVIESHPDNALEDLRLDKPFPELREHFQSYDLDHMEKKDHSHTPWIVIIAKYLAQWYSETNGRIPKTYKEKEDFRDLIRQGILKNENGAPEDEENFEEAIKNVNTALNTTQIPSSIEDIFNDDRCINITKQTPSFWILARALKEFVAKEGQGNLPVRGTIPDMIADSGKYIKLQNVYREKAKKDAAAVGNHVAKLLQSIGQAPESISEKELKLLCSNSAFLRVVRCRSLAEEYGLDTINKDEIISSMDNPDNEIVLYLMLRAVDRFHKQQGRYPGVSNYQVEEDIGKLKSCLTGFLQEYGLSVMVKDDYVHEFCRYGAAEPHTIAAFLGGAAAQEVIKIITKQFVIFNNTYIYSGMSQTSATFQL
# Measurement Protocol: Nedd8-Activating Enzyme (NAE) HTRF Assay
# Format: biochemical
# Recorded Conditions: 20 μM ATP, bound given in nM

Known results for molecules:
OC[C@@H]1C[C@@H](Nc2ncnc3[nH]c(-c4cccc5c4OCCO5)nc23)C[C@@H]1O [Compound I-138]; > 500 nM
NS(=O)(=O)OC[C@@H]1C[C@@H](Oc2ncnc3nc(-c4cncc5ccccc45)[nH]c23)C[C@@H]1O [Compound I-112]; ≤ 500 nM

Shifting focus to the molecule that follows.
Task item: Please tell me: IC50 of NS(=O)(=O)OC[C@@H]1C[C@@H](Nc2ncnc(N[C@@H]3c4ccccc4CC3(F)F)n2)C[C@@H]1O [Compound I-147] , system recombinant human NAE enzyme (Homo sapiens, UniProt Q8TBC4)?
Reply: ≤ 500 nM
